Consider the following binders; for each one, report its pEC50.
# target-or-system: T1, Human CLDN18.2 (human)
# T1 construct: on transfected HEK293-6E cells or native on SNU 601 cells
# test-details: flow cytometry, HEK293-6E + human CLDN18.2, 4PL fit
Numbers only, as −log10 of the molar value.

Example cases with answers are listed next.
- binder: "v37409 (antibody, human IgG1, V domains shown, human IgG1-based monoclonal antibody; also called H2-L4) VH: QVQLVESGGGLVQPGGSLRLSCSVSGIDLSSNPMIWVRQAPGKGLEYIGIIDTDGSTYYADWAKGRFTISKDSSKNTVYLQMNSLRAEDTAVYYCARRLHGSSNGYYDDLWGQGTLVTVSS VL: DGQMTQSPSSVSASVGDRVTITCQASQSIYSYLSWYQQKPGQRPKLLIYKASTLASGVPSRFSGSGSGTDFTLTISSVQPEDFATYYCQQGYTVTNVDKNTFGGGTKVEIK"
  pEC50: 8.91
- binder: "v37410 (antibody, human IgG1, V domains shown, human IgG1-based monoclonal antibody; also called H3-L4) VH: QVQLVESGGGLVQPGGSLRLSCSVSGIDLSSNPMIWVRQAPGKGLQYIGIIDTDGSTYYADWAKGRFTISKDSSKNTVYLQMNSLRAEDTAVYYCARRLHGSSNGYYDDLWGQGTLVTVSS VL: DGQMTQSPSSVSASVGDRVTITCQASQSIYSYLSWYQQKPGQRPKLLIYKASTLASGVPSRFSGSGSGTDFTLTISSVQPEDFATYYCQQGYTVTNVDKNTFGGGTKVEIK"
  pEC50: 9.01

What does the record list as pEC50 for v37407 (antibody, human IgG1, V domains shown, human IgG1-based monoclonal antibody; also called H4-L4) VH: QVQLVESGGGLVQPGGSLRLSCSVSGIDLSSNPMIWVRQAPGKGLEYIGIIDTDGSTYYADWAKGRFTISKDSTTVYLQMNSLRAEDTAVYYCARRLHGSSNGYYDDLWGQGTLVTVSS VL: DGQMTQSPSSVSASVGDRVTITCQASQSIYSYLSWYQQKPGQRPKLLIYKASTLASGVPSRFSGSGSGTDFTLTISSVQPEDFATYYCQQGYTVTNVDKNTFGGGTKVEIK ?
8.81

src = patent US20260028403A1
